protocol.notes: protein stability index of a GFP-peptide fusion (GPS, HEK-293T) (PSI 1-6); higher = more stable;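 further: 24-mer peptide tiles fused after GFP, lentivirally expressed, FACS-sorted into six equal bins by GFP/DsRed ratio, decoded by Illumina sequencing, PSI is the read-weighted mean bin number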
test.conditions: treatment: MLN4924 1 uM, 8 h; c terminus: a fixed tail appended
The entries below come with measured protein stability index values attached.

>  <sequence>
EEAPAVTAGLKIFEPPAPGEGNSS [TNFSF13B]

>  <protein stability index>
5.3

$$$$
>  <sequence>
YPTCGIGYPVSSAFAFQNTFPHSI [SASS6]

>  <protein stability index>
2.49

$$$$
>  <sequence>
ECGKAFSQNSSLVQHERIHTGDKP [ZNF8]

>  <protein stability index>
4.48

$$$$
>  <sequence>
PYMSIQPAEDPDDYDDGFSMKHTA [SMARCE1]

>  <protein stability index>
4.78

$$$$
>  <sequence>
AFRYLSWILFPLLGCYAVYSLLYL [CLPTM1]

>  <protein stability index>
3.03

$$$$
>  <sequence>
QLLKGRVDNISTLDSEIKKNSDGM [CD207]

>  <protein stability index>
4.23

$$$$
>  <sequence>
KQKYFYKGGLVWDENSSDGRYVKE [CLK3]

>  <protein stability index>
3.62

$$$$
>  <sequence>
DDDFSIHAAHVVCRELGYVEAKSW [LOXL2]

>  <protein stability index>
2.83

$$$$
>  <sequence>
VVKVLLESGASIEDHNENGHTPLM [ANKRD17]

>  <protein stability index>
3.25

$$$$
>  <sequence>
LKTSEVTQHLPRECLPENLGGYVK [PTPN9]

>  <protein stability index>
3.73

$$$$
>  <sequence>
LSLCICGTAITSQYLAERYKVNTP [SLC35F2]

>  <protein stability index>
2.63

$$$$
>  <sequence>
FDVVVILTCSLSFLLCARSLLRGF [MCOLN1]

>  <protein stability index>
2.98

$$$$
>  <sequence>
FDKKDRRALHWAAYMGHLDVVALL [ANKRD44]

>  <protein stability index>
2.24

$$$$

The origin of these recorded values is the supplement of paper PMC10567573.
